- Tested on: MOLT-4
- experiment.summary: NCI tumour cell line growth inhibition, 48 h
The source made the active and inactive calls. No stated cut-off is given here; in the data, active = GI50 up to about 1.1 µM and inactive = higher.
Thanks in advance; please answer with one of these: yes = active, no = inactive

Recorded results for 2 molecules are shown here.
>>> class_assignment("CC(C)[C@](O)(C(=O)OCC1=CCN2CC[C@@H](O)[C@@H]12)[C@H](C)O")
"no"
>>> class_assignment("C=C1C(=O)O[C@H]2/C=C(/C)C3=CC(=O)[C@@](C)(C[C@@H](OC(=O)/C(C)=C\\C)C12)O3 (stereo not given in full)")
"no"

Query :: What did the test return for O=[N+]([O-])/C(C(Cl)=C(Cl)Cl)=C(\Nc1cccc2ccccc12)Sc1ccccc1 ?
Result :: no

Query :: What did the test return for c1ccc2c(c1)N=c1ccccc1=P21c2ccccc2Nc2ccccc21 ?
Result :: yes

Query :: What did the test return for COC(=O)[C@@H]1C[C@H]2OC(=O)CC[C@]2(C)O[C@H]1[C@H]1O[C@@](C)(O)CCC[C@H]1C ?
Result :: no

Query :: What did the test return for COc1ccc(C(c2c[nH]c3ccc(Br)cc23)c2c[nH]c3ccc(Br)cc23)cc1 ?
Result :: yes

====

- Tested on: MDA-MB-435
- experiment.summary: NCI tumour cell line growth inhibition, 48 h
Active and inactive are the calls of the source. No stated cut-off is given here; in the data, active = GI50 up to about 1.1 µM and inactive = higher.
Field: GI50. Provide a value for each of the compounds that follow.

>>> observed_measurement("O=C1NC(=O)/C(=C/c2ccc(S(=O)(=O)N/N=C/c3ccc(Cl)cc3)cc2)N1")
"> 100 µM (inactive)"
>>> observed_measurement("CCCCNC(=O)OCCN=c1c2ccccc2ccc2ccccc12")
"> 100 µM (inactive)"
>>> observed_measurement("CCCCc1ccc(Nc2nc(S)c3[nH]cnc3n2)cc1")
"17.1 µM (inactive)"
>>> observed_measurement("CCOC(=O)c1cc(C2(OC)CCN(Cc3ccccc3)C2=O)c(-c2cc(C)no2)[nH]1 (stereo unspecified)")
"> 100 µM (inactive)"
>>> observed_measurement("NC(Cc1ccc(OCc2ccccc2)cn1)C(=O)OCc1ccccc1 (stereo unspecified)")
"> 100 µM (inactive)"

Query :: Give the measured GI50 for c1ccc2c(c1)N=c1ccccc1=P21c2ccccc2Nc2ccccc21
Result :: 0.39 µM (active)

====

- System: KM12
- experiment.summary: NCI tumour cell line growth inhibition, 48 h
Active and inactive are the calls of the source. No stated cut-off is given here; in the data, active = GI50 up to about 1.1 µM and inactive = higher.
Thanks in advance; please answer with one of these: T for active, F for inactive

Recorded results for 8 compounds are shown here.
>>> class_assignment("O=C(CSc1nnc(-c2ccccn2)s1)N/N=C/c1ccccc1")
"F"
>>> class_assignment("O=[N+]([O-])c1ccc(Cl)cc1N/N=C/c1ccnc2ccccc12")
"F"
>>> class_assignment("C/C(=N\\O)c1ccc(OCc2cc(C(F)(F)F)cc(C(F)(F)F)c2)cc1")
"F"
>>> class_assignment("C=CCn1c2c(c3ccccc3c1=O)C(=O)c1ccccc1-2")
"F"
>>> class_assignment("CCOc1ccc(NCc2cc(OC)c(OC)c(OC)c2)cc1")
"T"
>>> class_assignment("Cc1cc(O)nc(CNC(=O)Cc2ccccc2)n1")
"F"
>>> class_assignment("CCOC(=O)C1=CC(C)(C(=O)OCC)Nc2c(nc(SC)[nH]c2=O)N1 (stereo unspecified)")
"F"
>>> class_assignment("CCCCn1c2c(c3ccccc3c1=O)C(=O)c1ccccc1-2")
"F"

Query :: What did the test return for O=C(CSc1nnc(Cc2ccccc2)o1)Nc1ccccc1Cl ?
Result :: F

Query :: What did the test return for CC(=O)C1Cn2c(=O)c3cc4ccccc4cc3c(=O)n2C=C1C (stereo unspecified) ?
Result :: F

Query :: What did the test return for Cc1cc(O)c2c(c1)OC1(C)CCC3C(C)(C)CCCC34COC2C14 (stereo unspecified) ?
Result :: F

====

- System: SF-539
- experiment.summary: NCI tumour cell line growth inhibition, 48 h
Calls of active or inactive are those of the source. Cut-off read from the data, not from the text of the source: active = GI50 up to about 1.1 µM and inactive = higher.
parameter: GI50

Consider the following illustrative entries.
>>> observed_measurement("CC(CO)C1C[C@H](O)[C@@]2(C)CC(=O)C=C(CO)[C@@H]2C1 (stereo not given in full)")
"> 100 µM (inactive)"
>>> observed_measurement("Cc1ccccc1NC(=N)Nc1ccccc1C")
"> 100 µM (inactive)"
>>> observed_measurement("O=C(Nc1ccc(C(F)(F)F)cc1[N+](=O)[O-])C(=O)C(C(=O)c1ccc2ccccc2c1)C1OC(=O)c2ccccc21 (stereo not given)")
"1.63 µM (inactive)"

Record GI50 for all entries; do not skip any.
1. COc1cc(/C=C\c2nnc(/C=C\c3ccc(O)c(OC)c3)s2)ccc1O
2. COC(=O)c1ccc2c(c1)sc1nc(-c3ccc(OC)cc3)cn12

Result ::
2.44 µM (inactive)
59.8 µM (inactive)

====

- Test system: HOP-18
- experiment.summary: NCI tumour cell line growth inhibition, 48 h
Activity calls are given as the source filed them. Rule as the data show it: active = GI50 up to about 1.1 µM and inactive = higher.
Field: GI50. Provide a value for each of the compounds that follow.

>>> observed_measurement("COc1cc(Br)c(CC2=NCCc3cc(OC)c(OC)cc32)cc1OC")
"11.3 µM (inactive)"

Record GI50 for all entries; do not skip any.
1. O=C(c1ccccc1)c1nc2ccc(Cl)cc2c2c1CCCO2
2. CCN(CC)CCNC(=O)c1ccccc1NC(=O)C(=O)Nc1ccccc1C(=O)NCCN(CC)CC
3. CCCCCCCC(CC(=O)NC(CO)C(=O)NC(CO)CC(C)C)OC(=O)CC(CCCCCCC)OC(=O)CC(CCCCCCC)OC1OC(C)C(O)C(OC2OC(C)C(O)C(O)C2O)C1O (stereo not drawn)
4. COc1ccc(C2Cc3cc(OC)c(OC)c(OC)c3C2=O)cc1 (stereo not drawn)
5. CCCCCCCCCCCCCCCc1nnc(SCC(=O)O)[nH]1

Result ::
1. > 100 µM (inactive)
2. > 100 µM (inactive)
3. 17.6 µM (inactive)
4. > 100 µM (inactive)
5. > 100 µM (inactive)

Record GI50 for all entries; do not skip any.
1. COc1ccc(C[C@]23CCC(=O)N2CCc2cc(OC)c(O)cc23)cc1O
2. COc1ccc(-c2cc(-c3cc(C)ccc3O)nc(O)n2)cc1

Result ::
1. > 100 µM (inactive)
2. > 100 µM (inactive)

====

- System: BT-549
- experiment.summary: NCI tumour cell line growth inhibition, 48 h
Calls of active or inactive are those of the source. No stated cut-off is given here; in the data, active = GI50 up to about 1.1 µM and inactive = higher.
parameter: GI50

Consider the following illustrative entries.
>>> observed_measurement("Cc1nc(=O)[nH]c(NCCNCCO)c1C(=O)Nc1cccc2cc3ccccc3cc12")
"> 100 µM (inactive)"
>>> observed_measurement("COc1cc(/C=C2\\N=C(c3ccccc3)N(c3ccc4c(c3)Sc3cc(N5C(=O)/C(=C/c6cc(OC)c(OC)c(OC)c6)N=C5c5ccccc5)ccc3N4)C2=O)cc(OC)c1OC")
"23.4 µM (inactive)"
>>> observed_measurement("COc1ccc2c(c1OC)C(=O)O[C@@H]2[C@H]1c2c(cc3c(c2OC)OCO3)CCN1C [NOSCAPINE]")
"45.7 µM (inactive)"

Record GI50 for all entries; do not skip any.
1. CC1(c2ccccc2)CCN(C2CC2)CO1 (stereo unspecified)
2. CCCCS/C(=C(/C#N)C(N)=O)c1cc2c([nH]1)CCCC2
3. CC(=O)[C@@H](C)C(=O)N1C(=O)OC[C@@]12[C@@H]1CC[C@@H](C1)C2(C)C
4. O=[N+]([O-])c1ccc(Cl)cc1N/N=C/c1ccnc2ccccc12
5. Cn1c(C(C)(C)OC(=O)Oc2ccccc2)cnc1[N+](=O)[O-]
6. O=C1NC(=S)NC(=O)C1C(c1ccc([N+](=O)[O-])cc1)C1C(=O)NC(=S)NC1=O.c1ccncc1

Result ::
1. 18.3 µM (inactive)
2. 11.1 µM (inactive)
3. > 100 µM (inactive)
4. > 100 µM (inactive)
5. > 100 µM (inactive)
6. > 100 µM (inactive)

Record GI50 for all entries; do not skip any.
1. O=C(O)[C@@H]1C[C@@H](O)CN1
2. C[C@]12CC[C@H]3[C@@H](CC=C4C[C@@H](N5CCCC5)CC[C@@]43C)[C@@H]1C[C@H](N1CCCCC1)[C@@H]2O
3. C=C1c2nc3ccccc3n2C=C(c2ccccc2)N1c1ccc(C)cc1
4. COc1ccc(C(c2c[nH]c3ccc(Br)cc23)c2c[nH]c3ccc(Br)cc23)cc1

Result ::
1: > 100 µM (inactive); 2: > 100 µM (inactive); 3: 49.9 µM (inactive); 4: 1.51 µM (inactive)

====

Field: GI50. Provide a value for each of the molecules that follow.
- Test system: HOP-62
- experiment.summary: NCI tumour cell line growth inhibition, 48 h
Activity calls are given as the source filed them. Rule as the data show it: active = GI50 up to about 1.1 µM and inactive = higher.

>>> observed_measurement("Cc1cc2c(cc1C(=O)c1ccc(N)cc1)OCO2")
"58.7 µM (inactive)"
>>> observed_measurement("O=[N+]([O-])/C(C(Cl)=C(Cl)Cl)=C(\\Nc1cccc2ccccc12)Sc1ccccc1")
"23.9 µM (inactive)"
>>> observed_measurement("COC(=O)C1OC(O[C@H]2CC[C@]3(C)[C@H]4CC=C5[C@@H]6CC(C)(C)CC[C@]6(C(=O)OC6OCC(O)C(O)C6OC6OC(C)C(OC7OCC(OC8OCC(O)C(O)C8O)C(O)C7O)C(O)C6O)[C@H](O)C[C@@]5(C)[C@]4(C)CC[C@H]3C2(C)C)C(O)C(O)C1O (some centres undefined)")
"5.33 µM (inactive)"

Moving on to another molecule below.
Query :: Give the measured GI50 for O=C(CSc1nnc(-c2ccccn2)s1)N/N=C/c1ccccc1
Result :: 51.5 µM (inactive)
